Just for reference, patent US11414404B2 is where these values come from.

- Tested System: BCRP (Homo sapiens (Human), UniProt Q9UNQ0)
- Sequence (Q9UNQ0 whole entry, species assumed): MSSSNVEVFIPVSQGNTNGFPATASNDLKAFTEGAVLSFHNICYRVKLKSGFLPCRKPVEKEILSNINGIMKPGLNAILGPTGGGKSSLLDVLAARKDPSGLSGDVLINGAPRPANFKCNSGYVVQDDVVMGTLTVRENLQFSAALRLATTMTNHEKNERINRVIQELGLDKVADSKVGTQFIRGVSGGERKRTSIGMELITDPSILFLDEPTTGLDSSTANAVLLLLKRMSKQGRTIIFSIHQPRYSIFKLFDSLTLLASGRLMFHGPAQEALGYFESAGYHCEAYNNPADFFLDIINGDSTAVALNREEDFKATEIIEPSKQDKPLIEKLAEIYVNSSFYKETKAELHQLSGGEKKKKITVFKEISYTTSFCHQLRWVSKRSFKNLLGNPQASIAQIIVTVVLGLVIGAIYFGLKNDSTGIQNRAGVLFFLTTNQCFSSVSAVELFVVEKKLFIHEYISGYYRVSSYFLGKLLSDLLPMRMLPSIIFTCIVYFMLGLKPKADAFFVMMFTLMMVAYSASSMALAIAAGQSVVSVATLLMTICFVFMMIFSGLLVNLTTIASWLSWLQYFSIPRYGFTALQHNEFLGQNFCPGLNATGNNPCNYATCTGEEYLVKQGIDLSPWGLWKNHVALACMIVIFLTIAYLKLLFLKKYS
- Experimental Details: BCRP MDCKII permeability assay: efflux ratio
- Condition Info: dog
Readout Label: efflux ratio at 2 h, 1 µM

>>> quantitative_result("Cc1c(Nc2c(F)cnc(NS(=O)(=O)CCCF)c2F)ccc2ncn(C)c(=O)c12")
25.3
>>> quantitative_result("CCCS(=O)(=O)Nc1ncc(F)c(Oc2ccc3ncn(C)c(=O)c3c2C)c1F")
22.5
>>> quantitative_result("COCCS(=O)(=O)Nc1ccc(F)c(Nc2ccc3ncn(C)c(=O)c3c2C)c1Cl")
2.09
>>> quantitative_result("CCCS(=O)(=O)Nc1cc(F)cc(Oc2ccc3ncn(C)c(=O)c3c2C)c1Cl")
0.92
>>> quantitative_result("[2H]C([2H])([2H])n1cnc2ccc(Nc3c(F)ccc(NS(=O)(=O)CCC)c3Cl)c(C)c2c1=O")
1.18
>>> quantitative_result("Cc1c(Nc2c(F)ccc(NS(=O)(=O)N3CC[C@@H](F)C3)c2Cl)ccc2ncn(C)c(=O)c12")
1.49
>>> quantitative_result("C#Cc1c(Nc2c(F)ccc(NS(=O)(=O)CCC)c2Cl)ccc2ncn(C)c(=O)c12")
2.35

---

- Experimental Details: PK (free brain-to-free plasma ratio) (mouse)
- Format: in vivo
- Condition Info: mouse; unbound brain-to-unbound plasma concentration ratio; male CD-1 mice; oral gavage 10 mg/kg; sampling 2-24 hours; read-out: B/P ratio (free)
Readout Label: Kp,uu (unbound brain/unbound plasma ratio)

>>> result("Cn1cnc2ccc(Nc3c(F)ccc(NS(=O)(=O)CCCF)c3Cl)cc2c1=O [WO 2012/118492 Example 34, reference compound]")
"0.08 to 0.14"
>>> result("Cn1cnc2ccc(Nc3c(F)ccc(NS(=O)(=O)CCCF)c3Cl)c(Cl)c2c1=O [WO 2012/118492 Ex. 37, reference compound]")
"0.12 to 0.15"
>>> result("CCCS(=O)(=O)Nc1ccc(F)c(Nc2ccc3ncn(C)c(=O)c3c2C)c1Cl [Example 9]")
"0.76 to 1.04"
>>> result("Cc1c(Oc2c(F)ccc(NS(=O)(=O)CCCF)c2Cl)ccc2ncn(C)c(=O)c12 [Example 67]")
"0.4 to 0.49"
>>> result("Cc1c(Nc2cccc(NS(=O)(=O)CCCF)c2Cl)ccc2ncn(C)c(=O)c12 [Example 4]")
"0.35 to 1.6"
>>> result("CCCS(=O)(=O)Nc1ccc(F)c(Nc2ccc3ncn(C)c(=O)c3c2C)c1F [Example 1]")
"0.3 to 0.62"
>>> result("CCCS(=O)(=O)Nc1cc(F)c(F)c(Nc2ccc3ncn(C)c(=O)c3c2C)c1Cl [Example 7]")
"0.87 to 1.19"

---

- Experimental Details: MDR1 LLC-PK1 and BCRP MDCKII permeability assay: permeability coefficient (Papp)
Documented Papp at 2 h, 1 µM across a set of molecules
Readout Label: Papp at 2 h, 1 µM (×10⁻⁶ cm/s)

>>> quantitative_result("CCCS(=O)(=O)Nc1ccc(F)c(Nc2ccc3ncn(C)c(=O)c3c2C)c1F")
34.9
>>> quantitative_result("CCCS(=O)(=O)Nc1ccc(F)c(Nc2ccc3ncn(C)c(=O)c3c2C)c1C")
29.8
>>> quantitative_result("C#Cc1c(Nc2c(F)ccc(NS(=O)(=O)CCC)c2Cl)ccc2ncn(C)c(=O)c12")
29
